Origin of measurements: PubChem BioAssay AID1189

- EXPERIMENT_DESCRIPTION: DSSTox (CPDBAS) Carcinogenic Potency Database Summary SingleCellCall Results
- PARTICULARS: animal chronic carcinogenicity bioassays, CPDB summary call
Active and inactive are the calls of the source.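 The calls were made as follows: active = a tumor-causing dose value with its tumor site reported for any sex and species group of a rodent or other animal cancer study; inconclusive = only studies judged inadequate by the national testing program; inactive = tested in at least one study, none positive.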
Entry note: the call must match one of active, inactive

Prompt line: Write down the call the test reported for this molecule. Item: Cc1c(N(C)C)c(=O)n(-c2ccccc2)n1C
Response line: inactive

Prompt line: Write down the call the test reported for this molecule. Item: Brc1cc(Br)c2cccnc2c1
Response line: inactive

Prompt line: Write down the call the test reported for this molecule. Item: C=C1C[C@@]23CC[C@H]4[C@@](C)(CCC[C@@]4(C)C(=O)O[C@@H]4O[C@H](CO)[C@@H](O)[C@H](O)[C@H]4O)[C@@H]2CC[C@]1(O[C@@H]1O[C@H](CO)[C@@H](O)[C@H](O)[C@H]1O[C@@H]1O[C@H](CO)[C@@H](O)[C@H](O)[C@H]1O)C3
Response line: inactive

Prompt line: Write down the call the test reported for this molecule. Item: C[C@]12CCC(=O)C=C1CC[C@@H]1[C@@H]2[C@@H](O)C[C@@]2(C)[C@H]1CC[C@]2(O)C(=O)CO
Response line: inactive

Prompt line: Write down the call the test reported for this molecule. Item: C=C(C)[C@H]1Cc2c(ccc3c2O[C@@H]2COc4cc(OC)c(OC)cc4[C@@H]2C3=O)O1
Response line: inactive

Prompt line: Write down the call the test reported for this molecule. Item: Cc1csc(NNC=O)n1
Response line: active

Prompt line: Write down the call the test reported for this molecule. Item: CCSCCC(N)C(=O)O (stereo not given)
Response line: active

Prompt line: Write down the call the test reported for this molecule. Item: CC(C)N=[N+]([O-])C(C)C
Response line: active

Continuing:
Prompt line: Write down the call the test reported for this molecule. Item: COc1cc(NC(=O)C(N=Nc2ccc(-c3ccc(N=NC(C(C)=O)C(=O)Nc4cc(OC)c(Cl)cc4OC)c(Cl)c3)cc2Cl)C(C)=O)c(OC)cc1Cl (stereo not given)
Response line: inactive

Prompt line: Write down the call the test reported for this molecule. Item: O=C1c2ccccc2C(=O)c2c(O)cccc21
Response line: active

Prompt line: Write down the call the test reported for this molecule. Item: C=CCc1ccc(O)c(OC)c1
Response line: inactive

Prompt line: Write down the call the test reported for this molecule. Item: NNCCc1ccccc1
Response line: active

Prompt line: Write down the call the test reported for this molecule. Item: Nc1ccc(NCCO)c([N+](=O)[O-])c1
Response line: inactive

Prompt line: Write down the call the test reported for this molecule. Item: CCc1ccccc1
Response line: active

Prompt line: Write down the call the test reported for this molecule. Item: CCNc1nc(Cl)nc(NC(C)(C)C#N)n1
Response line: active

====

- EXPERIMENT_DESCRIPTION: DSSTox (CPDBAS) Carcinogenic Potency Database Summary SingleCellCall Results
- PARTICULARS: animal chronic carcinogenicity bioassays, CPDB summary call
Calls of active or inactive are those of the source.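 The calls were made as follows: active = a tumor-causing dose value with its tumor site reported for any sex and species group of a rodent or other animal cancer study; inconclusive = only studies judged inadequate by the national testing program; inactive = tested in at least one study, none positive.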
Entry note: the call must match one of Yes = active, No = inactive

Below, 5 compounds whose answers are already recorded.
Prompt line: Write down the call the test reported for this compound. Item: F[B-](F)(F)F
Response line: No

Prompt line: Write down the call the test reported for this compound. Item: Nc1ccc(Nc2ccccc2)cc1
Response line: No

Prompt line: Write down the call the test reported for this compound. Item: OCl
Response line: No

Prompt line: Write down the call the test reported for this compound. Item: Clc1ccccc1
Response line: Yes

Prompt line: Write down the call the test reported for this compound. Item: CC(C)(C)c1cc([N+](=O)[O-])cc([N+](=O)[O-])c1OS(C)(=O)=O
Response line: No

Continuing:
Prompt line: Write down the call the test reported for this compound. Item: CNC(=O)c1c(N(C)N=O)ncn1C
Response line: Yes

Prompt line: Write down the call the test reported for this compound. Item: Cc1nc(N)cc2[nH]c3ccccc3c12
Response line: Yes

====

- EXPERIMENT_DESCRIPTION: DSSTox (CPDBAS) Carcinogenic Potency Database Summary SingleCellCall Results
- PARTICULARS: animal chronic carcinogenicity bioassays, CPDB summary call
Calls of active or inactive are those of the source.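 Rule for the calls: active = a tumor-causing dose value with its tumor site reported for any sex and species group of a rodent or other animal cancer study; inconclusive = only studies judged inadequate by the national testing program; inactive = tested in at least one study, none positive.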
Entry note: the call must match one of active, inactive

Below, 2 compounds whose answers are already recorded.
Prompt line: Write down the call the test reported for this compound. Item: Oc1ccccc1-c1ccccc1
Response line: active

Prompt line: Write down the call the test reported for this compound. Item: C1CCCNCCC1
Response line: inactive

Continuing:
Prompt line: Write down the call the test reported for this compound. Item: CCCC[N+](=O)[O-]
Response line: inactive

Prompt line: Write down the call the test reported for this compound. Item: Cc1ccc(N=Nc2c(O)c(S(=O)(=O)O)cc3ccc(S(=O)(=O)O)cc23)c(C)c1
Response line: active

Prompt line: Write down the call the test reported for this compound. Item: CCCCCN(N=O)C(=O)OCC
Response line: active

Prompt line: Write down the call the test reported for this compound. Item: O=C1c2cccc(O)c2C(=O)c2c(O)cccc21
Response line: active

Prompt line: Write down the call the test reported for this compound. Item: Nc1ccccc1C(=O)OC/C=C/c1ccccc1
Response line: active

Prompt line: Write down the call the test reported for this compound. Item: O=NN1CCCC1c1cccnc1 (stereo unspecified)
Response line: active

Prompt line: Write down the call the test reported for this compound. Item: CCN(N=O)C(=O)NCC(C)=O
Response line: active

Prompt line: Write down the call the test reported for this compound. Item: CN(N=O)C1=Nc2ccc(Cl)cc2C(c2ccccc2)=[N+]([O-])C1
Response line: inactive

Prompt line: Write down the call the test reported for this compound. Item: OCCBr
Response line: active

Prompt line: Write down the call the test reported for this compound. Item: O=P(OCC(Br)CBr)(OCC(Br)CBr)OCC(Br)CBr (stereo unspecified)
Response line: active

Prompt line: Write down the call the test reported for this compound. Item: FC(F)(F)C(Cl)Cl
Response line: active

====

- EXPERIMENT_DESCRIPTION: DSSTox (CPDBAS) Carcinogenic Potency Database Summary SingleCellCall Results
- PARTICULARS: animal chronic carcinogenicity bioassays, CPDB summary call
Calls of active or inactive are those of the source.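 How the source made its calls: active means a tumor-causing dose value with its tumor site reported for any sex and species group of a rodent or other animal cancer study; inconclusive means only studies judged inadequate by the national testing program; inactive means tested in at least one study, none positive.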
Entry note: the call must match one of active, inactive

Below, 4 compounds whose answers are already recorded.
Prompt line: Write down the call the test reported for this compound. Item: C=CCc1ccc2c(c1)OCO2
Response line: active

Prompt line: Write down the call the test reported for this compound. Item: CC(CN1c2ccccc2Sc2ccccc21)N(C)C (configuration not stated)
Response line: inactive

Prompt line: Write down the call the test reported for this compound. Item: CC(C)(CO)CCCCCCC(C)(C)CO
Response line: inactive

Prompt line: Write down the call the test reported for this compound. Item: NCCCCCCCCCCC(=O)O
Response line: active

Continuing:
Prompt line: Write down the call the test reported for this compound. Item: O=C(N[C@H](CO)[C@H](O)c1ccc([N+](=O)[O-])cc1)C(Cl)Cl
Response line: inactive

Prompt line: Write down the call the test reported for this compound. Item: Nc1cc(Cl)c(-c2cc(Cl)c(N)cc2Cl)cc1Cl
Response line: inactive

Prompt line: Write down the call the test reported for this compound. Item: O=C1CCO1
Response line: active

Prompt line: Write down the call the test reported for this compound. Item: COc1ccc(C(c2ccc(OC)cc2)C(Cl)(Cl)Cl)cc1
Response line: inactive

Prompt line: Write down the call the test reported for this compound. Item: NNC=O
Response line: active

Prompt line: Write down the call the test reported for this compound. Item: O=C(O)c1cccnc1
Response line: inactive

Prompt line: Write down the call the test reported for this compound. Item: O=NN1CCC(O)C1 (configuration not stated)
Response line: active

Prompt line: Write down the call the test reported for this compound. Item: COc1ccc2c(c1)c(CC(=O)O)c(C)n2C(=O)c1ccc(Cl)cc1
Response line: active

Prompt line: Write down the call the test reported for this compound. Item: CC(Cl)Cl
Response line: inactive

====

- EXPERIMENT_DESCRIPTION: DSSTox (CPDBAS) Carcinogenic Potency Database Summary SingleCellCall Results
- PARTICULARS: animal chronic carcinogenicity bioassays, CPDB summary call
The source made the active and inactive calls.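 The calls were made as follows: active = a tumor-causing dose value with its tumor site reported for any sex and species group of a rodent or other animal cancer study; inconclusive = only studies judged inadequate by the national testing program; inactive = tested in at least one study, none positive.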
ASSAY_METRIC: outcome

// known answers, use as guide
Prompt line: // Input: Nc1ccc(N)c(Cl)c1 . Output its outcome only.
Response line: inactive

Prompt line: // Input: C/C=C1/C[C@@H](C)[C@](O)(CO)C(=O)OCC2=CCN3CC[C@@H](OC1=O)[C@@H]23 . Output its outcome only.
Response line: active

Prompt line: // Input: O=[N+]([O-])c1ccc2c3c(cccc13)CC2 . Output its outcome only.
Response line: active

Prompt line: // Input: O=C(O)c1cc(N=Nc2ccc(S(=O)(=O)Nc3ccccn3)cc2)ccc1O . Output its outcome only.
Response line: active

Prompt line: // Input: O=C1Nc2ccc(Cl)cc2C(c2ccccc2)=NC1O (centres undefined) . Output its outcome only.
Response line: active

Continuing:
Prompt line: // Input: ClC(Cl)Cl . Output its outcome only.
Response line: active

Prompt line: // Input: ClCOCCCCOCCl . Output its outcome only.
Response line: inactive

Prompt line: // Input: OCC(CO)N[C@H]1C[C@](O)(CO)[C@@H](O)[C@H](O)[C@H]1O . Output its outcome only.
Response line: inactive

Prompt line: // Input: Cc1ccc(C)c(N)c1 . Output its outcome only.
Response line: active

Prompt line: // Input: COc1ccc(C)cc1N . Output its outcome only.
Response line: active

Prompt line: // Input: c1ccc(N=Nc2ccccc2)cc1 . Output its outcome only.
Response line: active

Prompt line: // Input: CC(O)CNCC(C)O (centres undefined) . Output its outcome only.
Response line: inactive

Prompt line: // Input: COC(=O)[C@H]1[C@H]2C[C@@H]3c4[nH]c5cc(OC)ccc5c4CCN3C[C@H]2C[C@@H](OC(=O)c2cc(OC)c(OC)c(OC)c2)[C@@H]1OC . Output its outcome only.
Response line: active

Prompt line: // Input: Cc1cccn2c1nc1ccc(N)nc12 . Output its outcome only.
Response line: active
